Recorded values, source patent US11576897B2.

Target: UniProt:P28223
Assay: biochemical
Assay type: binding
Details: [3H]-ketanserin, human 5-HT2A receptor-expressed CHO cell membrane; read-out: 5-HT2A receptor binding inhibition constant Ki

{"COMPOUND": "CNCc1cc(OCc2cc(Cl)ccc2F)n(CC2CC3CCC2C3)n1 (stereo not drawn) [Example 118]", "Ki / nM": 0.73}
{"COMPOUND": "CNCc1cc(OCc2cc(F)ccc2F)n(Cc2ccc(C)cc2)n1 [Example 230]", "Ki / nM": 2.7}
{"COMPOUND": "CNCc1cc(OCc2ccc(F)cc2)n(CC2CCCC2)n1 [Example 137]", "Ki / nM": 1.3}
{"COMPOUND": "Cl.[2H]C([2H])(Oc1cc(CNC)nn1CC1CCCCC1)c1cc(F)ccc1F [Example 497]", "Ki / nM": 2.4}
{"COMPOUND": "CNCc1cc(OCc2ccccc2)n(Cc2ccccc2)n1 [Example 1]", "Ki / nM": 5.5}
{"COMPOUND": "CNCc1cc(OCc2cc(F)c(F)cc2F)n(Cc2ccc(C)cc2)n1 [Example 286]", "Ki / nM": 2.4}
{"COMPOUND": "CNCc1nn(CC2CCCCC2)c(OCc2cc(F)ccc2F)c1F [Example 351]", "Ki / nM": 15}
{"COMPOUND": "Fc1ccc(F)c(COc2cc(CNC3CC3)nn2CC2CCCCC2)c1 [Example 342]", "Ki / nM": 4.9}
{"COMPOUND": "CNCc1cc(OCc2ccc(F)cc2C)n(C(C)C2CCCCC2)n1 (stereo not drawn) [Example 302]", "Ki / nM": 0.94}
